Biological target: CYP 2C8 (Homo sapiens)
Sequence (P10632 1-490): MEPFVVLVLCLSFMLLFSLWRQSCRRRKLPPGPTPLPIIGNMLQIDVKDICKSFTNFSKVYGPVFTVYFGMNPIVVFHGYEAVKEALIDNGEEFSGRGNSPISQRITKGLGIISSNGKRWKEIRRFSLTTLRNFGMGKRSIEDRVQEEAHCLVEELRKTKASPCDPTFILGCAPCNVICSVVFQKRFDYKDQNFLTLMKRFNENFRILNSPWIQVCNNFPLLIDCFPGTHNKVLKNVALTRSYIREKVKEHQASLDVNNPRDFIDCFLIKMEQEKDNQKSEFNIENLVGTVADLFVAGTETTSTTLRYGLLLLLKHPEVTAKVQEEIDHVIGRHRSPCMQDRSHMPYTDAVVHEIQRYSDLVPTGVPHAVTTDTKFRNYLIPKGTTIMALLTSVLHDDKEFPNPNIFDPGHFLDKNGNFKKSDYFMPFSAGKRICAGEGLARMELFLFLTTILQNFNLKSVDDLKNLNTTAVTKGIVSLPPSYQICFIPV
pIC50: −log10 of the molar value.
Readings of pIC50 for the listed compounds

Compound	pIC50
C=C(F)C(=O)N1CCN(c2nc(OC[C@@H]3CCCN3C)nc3c2CCN(c2cccc4cccc(Cl)c24)C3)C[C@@H]1CC#N [MRTX849]	< 5.00
C=CC(=O)N1CCN(c2nc(=O)n(-c3c(C)ccnc3C(C)C)c3nc(-c4c(O)cccc4F)c(F)cc23)[C@@H](C)C1 [AMG510]	< 5.00
